I'd be grateful if you could share measured pIC50 for these entries.
Tested On: purified recombinant human GAC (GLS1) (Homo sapiens, UniProt O94925)
Sequence (O94925 55-598 isoform O94925-3 limits assumed): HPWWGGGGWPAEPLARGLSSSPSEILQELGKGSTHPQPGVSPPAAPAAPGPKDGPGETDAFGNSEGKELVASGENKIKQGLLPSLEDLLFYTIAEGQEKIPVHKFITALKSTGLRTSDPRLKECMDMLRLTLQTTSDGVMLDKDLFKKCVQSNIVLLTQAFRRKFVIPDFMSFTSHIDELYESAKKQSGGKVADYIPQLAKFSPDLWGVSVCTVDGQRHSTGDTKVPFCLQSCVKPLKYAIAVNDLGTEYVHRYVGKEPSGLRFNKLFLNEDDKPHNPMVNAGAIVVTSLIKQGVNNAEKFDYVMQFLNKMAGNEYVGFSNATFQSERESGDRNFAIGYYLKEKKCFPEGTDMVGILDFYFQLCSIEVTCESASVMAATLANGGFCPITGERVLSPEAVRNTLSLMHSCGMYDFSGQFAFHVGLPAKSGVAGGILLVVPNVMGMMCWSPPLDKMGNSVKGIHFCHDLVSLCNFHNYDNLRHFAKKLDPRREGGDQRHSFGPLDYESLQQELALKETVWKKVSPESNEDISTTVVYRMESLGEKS
Assay Procedure: GLS1 Enzymatic Activity Assay (dual-coupled enzymatic assay)
pIC50: −log10 of the molar value.

# example entries with known answers
Requested field: pIC50. Item: Nc1nnc(CCCCc2cc3cc[nH]c3nn2)s1
5.30 to 6.30

Requested field: pIC50. Item: O=C(Cc1ccccc1)Nc1nnc(CCCCc2cnc3[nH]c(Cc4ccccc4)nc3c2)s1
5.30 to 6.30

Requested field: pIC50. Item: O=C(NCc1ccc(C(F)(F)F)cn1)c1cn(CCCCc2cc3cc(-c4ccccc4F)[nH]c3nn2)nn1
> 7.00

Requested field: pIC50. Item: Cc1ccc(CNC(=O)c2cn(CCCCc3cc4c(-c5ccccc5F)c(C5CC5)[nH]c4nn3)nn2)cn1
> 7.00

Requested field: pIC50. Item: CC(=O)Nc1ccc(-c2c(C3CC3)[nH]c3nnc(CCCCn4cc(C(=O)NCc5cccc(OC(F)(F)F)c5)nn4)cc23)cc1
> 7.00

Requested field: pIC50. Item: CC(C)(O)c1ccc(CNC(=O)c2cn(CCCCc3cc4c(-c5ccc(F)cc5F)c(C5CC5)[nH]c4nn3)nn2)cn1
> 7.00

Okay, here is my list. What is pIC50 for each of these?
1. CC(=O)N1CCC(c2cc3cc(CCCCn4cc(C(=O)NCc5cc(OC(F)(F)F)ccc5F)nn4)nnc3[nH]2)CC1
2. O=C(NCc1ccccn1)c1cn(CCCCc2cc3c(-c4ccccc4)c(C4CC4)[nH]c3nn2)nn1
3. O=C(NCc1cc(OC(F)(F)F)ccc1F)c1cn(CCCCc2cc3cc(C4CN(C(=O)OCC(F)(F)F)C4)[nH]c3nn2)nn1
4. CC(C)(C)OC(=O)N1CCC(c2cc3cc(CCCCn4cc(C(=O)NCc5cc(OC(F)(F)F)ccc5F)nn4)nnc3[nH]2)CC1
5. O=C(NCc1ccc(Cl)nc1)c1cn(CCCCc2cc3cc(C4CC4)[nH]c3nn2)nn1
6. O=C(NC1COC1)c1nnc(CCCCc2cc3cc(Cc4ccccc4)[nH]c3nn2)s1
7. Cc1ccc(CNC(=O)c2cn(CCCCc3cc4cc(C5CCOCC5)[nH]c4nn3)nn2)cn1

["> 7.00", "> 7.00", "> 7.00", "> 7.00", "6.30 to 7.00", "6.30 to 7.00", "6.30 to 7.00"]

###

Tested On: purified recombinant human GAC (GLS1) (Homo sapiens, UniProt O94925)
Assay Procedure: GLS1 Enzymatic Activity Assay (dual-coupled enzymatic assay)
Observation Type: IC50

# example entries with known answers
Requested field: IC50. Item: CS(=O)(=O)N1CC(c2cc3cc(CCCCn4cc(C(=O)NCc5cc(OC(F)(F)F)ccc5F)nn4)nnc3[nH]2)C1
< 0.1 µM

Requested field: IC50. Item: O=C(NCc1ccc(C(F)(F)F)nc1)c1cn(CCCCc2cc3c(-c4ccc(F)cc4F)c(C4CC4)[nH]c3nn2)nn1
< 0.1 µM

Requested field: IC50. Item: N#CCC(=O)N1CC(c2cc3cc(CCCCn4cc(C(=O)NCc5cc(OC(F)(F)F)ccc5F)nn4)nnc3[nH]2)C1
< 0.1 µM

Let's switch to this compound now.
Requested field: IC50. Item: O=C(NCCO)c1nnc(CCCCc2cc3cc(Cc4ccccc4)[nH]c3nn2)s1
0.5 to 5 µM
